# test_method_notes: SU-DIPG-VI glioma cell viability, MIPE4.0 library, CellTiter-Glo luminescence, qHTS (AID 1347066);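 also: cells exposed to compound for 48 hours before readout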
# protocol_conditions: CellTiter-Glo ATP luminescence
Results filed as inconclusive are left out. Calls of active or inactive are those of the source. The limit is not given here; nearly all actives have AC50 up to about 30 µM.
Hi there, use one of these labels in your reply, thanks! active, inactive

Consider the following illustrative entries.
compound	category
CCCC[N+]1(C)[C@@H]2CC(OC(=O)[C@H](CO)c3ccccc3)C[C@H]1[C@@H]1O[C@@H]12 (stereo partly drawn)	inactive
C[C@@]12OC(=O)[C@]1([C@@H](O)[C@@H]1C=CCCC1)NC(=O)[C@@H]2CCCl	active
C#C[C@]1(O)C=C[C@H]2[C@@H]3CCC4=CC(=O)CC[C@@H]4[C@H]3CC[C@@]21CC	inactive
CC[C@@H](C(N)=O)N1CCCC1=O	inactive
C=C[C@H]1CN2CCC1C[C@@H]2[C@@H](O)c1ccnc2ccccc12 (stereo partly drawn)	active
C[C@@H]1O[C@@H](O[C@H]2C[C@@H](O)[C@]3(CO)[C@H]4[C@H](O)C[C@]5(C)[C@@H](C6=CC(=O)OC6)CC[C@]5(O)[C@@H]4CC[C@]3(O)C2)[C@H](O)[C@H](O)[C@H]1O	active
C=C1C[C@@H]2[C@H](CC[C@]3(C)C(=O)CC[C@@H]23)[C@@]2(C)C=CC(=O)C=C12	inactive
C/C(=C\c1csc(C)n1)[C@@H]1C[C@@H]2O[C@]2(C)CCC[C@H](C)[C@H](O)[C@@H](C)C(=O)C(C)(C)[C@@H](O)CC(=O)O1	inactive
O=C(O)C(=O)c1cn(Cc2ccccc2)c2ccc(-c3ccc(OC(F)(F)F)cc3)cc12	inactive
c1ccc2c(CN3CCNCC3)cccc2c1	inactive

Prompt line: So what was the verdict on O=c1[nH]c2ccccc2n1C1CCN(Cc2ccc(-c3[nH]c4cc5ncnc5cc4nc3-c3ccccc3)cc2)CC1 in this test?
Response line: active

Prompt line: So what was the verdict on COc1ccc2c(c[n+](C)c3c4cc5c(cc4ccc23)OCO5)c1OC in this test?
Response line: active

Prompt line: So what was the verdict on Fc1ccc(C(OCCN2CCN(CCCc3ccccc3)CC2)c2ccc(F)cc2)cc1 in this test?
Response line: active

Prompt line: So what was the verdict on O=C(Oc1ccc([N+](=O)[O-])cc1)N1CCC(C(O)(c2ccc3c(c2)OCO3)c2ccc3c(c2)OCO3)CC1 in this test?
Response line: inactive

Prompt line: So what was the verdict on Cn1c(CCCC(=O)O)nc2cc(N(CCCl)CCCl)ccc21 in this test?
Response line: inactive
